Hello, the source for this data is the PolyMetriX glass transition set, in case you need it.

Each entry below lists one item and its recorded glass transition temperature value.

Reference set, count: 6
*C([2H])([2H])C(*)([2H])C([2H])([2H])[2H] (repeat unit) ... 0.00 °C
*Oc1ccc(Oc2ccc(C(=O)Nc3ccc(Cc4ccc(NC(=O)c5ccc(*)cc5)cc4)cc3)cc2)cc1 (repeat unit) ... 216.00 °C
*CCNC(=O)c1ccc([Si](CCCC)(CCCC)c2ccc(C(=O)NCCN(*)c3ccc(/C=C/c4ccc([N+](=O)[O-])cc4)cc3)cc2)cc1 (repeat unit) ... 115.00 °C
*CCCCCCCCCCCCCCCCCCNC(=O)NCc1ccc(CNC(=O)N*)cc1 (repeat unit) ... 52.00 °C
*CCOCCOc1cccc(NC(=O)c2cccc(C(=O)Nc3cccc(O*)c3)c2)c1 (repeat unit) ... 128.50 °C
*CCOC(=O)C1=CCCCC(N2CCCC2)=C1C(=O)O* (repeat unit) ... 352.50 °C

Turning now to a further compound:
Value of glass transition temperature reported for the compound *Oc1ccc(NC(=O)NC2CC(C)(C)CC(C)(CNC(=O)Nc3ccc(*)c(-c4ccc(Oc5ccccc5)cc4)c3)C2)cc1-c1ccc(Oc2ccccc2)cc1 (repeat unit) is 281.00 °C

---

Form field: glass transition temperature (one value per entry).
Give the number; °C is assumed, so skip it.

Examples with answers:
*CC(*)C(=O)NCCC[N+](C)(C)CCCS(=O)(=O)O (repeat unit) ... 141.50
*CC(*)c1ccc(/C(C)=N/O)cc1 (repeat unit) ... 134.00
*C(=O)OCCN(CCOC(=O)c1ccc2c(c1)C(=O)N(c1cccc(N3C(=O)c4ccc(*)cc4C3=O)c1)C2=O)c1ccc(/N=N/c2ccc([N+](=O)[O-])cc2)cc1 (repeat unit) ... 210.00
*C(=O)Nc1cccc(S(=O)(=O)c2cccc(NC(=O)c3ccc4c(c3)C(=O)N(c3cc(-c5nnc(-c6ccccn6)o5)cc(N5C(=O)c6ccc(*)cc6C5=O)c3)C4=O)c2)c1 (repeat unit) ... 173.00
*CC(*)C(=O)c1ccc(Cl)cc1 (repeat unit) ... 63.00
*c1cc(C)c(/N=C/c2ccc(OCc3ccc(COc4ccc(/C=N/c5cc(C)c(N6C(=O)c7ccc8c9ccc%10c%11c(ccc(c%12ccc(c7c8%12)C6=O)c%119)C(=O)N(*)C%10=O)cc5C)cc4OC)cc3)c(OC)c2)cc1C (repeat unit) ... 145.00
*Nc1ccc(NC(=O)c2cc(C(*)=O)cc(S(=O)(=O)c3ccccc3)c2)cc1 (repeat unit) ... 308.00
*c1ccc2c(c1)C(=O)N(c1cccc(C(=O)Nc3ccc(Oc4ccc(C(C)(C)c5ccc(Oc6ccc(NC(=O)c7cccc(N8C(=O)c9ccc(C(*)(C(F)(F)F)C(F)(F)F)cc9C8=O)c7)cc6)cc5)cc4)cc3)c1)C2=O (repeat unit) ... 259.00
*Nc1cccc(NC(=O)c2cc(NC(=O)c3ccncc3)cc(C(*)=O)c2)c1 (repeat unit) ... 321.00
*Oc1ccc(CC(NC(=O)CCc2ccc(OC(=O)CCC(*)=O)cc2)C(=O)OCC)cc1 (repeat unit) ... 78.00

Form field glass transition temperature, entry *CC(CSCCCC)O* (repeat unit) : -65.00

Looking up *c1ccc(OCCCCCCCCCCCOc2ccc(-c3ccc4nc(-c5cccc(-c6cc(-c7ccccc7)c7cc(*)ccc7n6)c5)cc(-c5ccccc5)c4c3)cc2)cc1 (repeat unit) , I found its glass transition temperature recorded as 133.50

Field glass transition temperature (entry *Oc1ccc(Oc2ccc(C(=O)c3ccc(*)c(S(=O)(=O)O)c3)cc2S(=O)(=O)O)cc1 (repeat unit) ) reads 220.00

Memo: *=Nc1cccc(/N=C(\c2ccccc2)c2ccc(C(=*)c3ccccc3)cc2)c1 (repeat unit) , reported glass transition temperature: 179.00

---

Item-by-item account of glass transition temperature
Provide only the numeric value, understood in °C.

*Oc1ccc2cc(C(*)=O)ccc2c1 (repeat unit) ... 147.00
*c1ccc(-c2cc(C(C)(C)C)c(Oc3ccc(N4C(=O)c5ccc6c7c(ccc(c57)C4=O)C(=O)N(*)C6=O)cc3C(F)(F)F)c(C(C)(C)C)c2)cc1 (repeat unit) ... 456.00
*CC(*)C(=O)NCCC[N+](C)(C)C (repeat unit) ... 57.00
*c1ccc2c(c1)C(CCCCCCCC)(CCCCCCCC)c1cc(-c3c(F)c(F)c(*)c(F)c3F)ccc1-2 (repeat unit) ... 29.00
*Oc1ccc(/N=C/c2ccc(Oc3ccc(C(c4ccc(Oc5ccc(/C=N/c6ccc(Oc7ccc(-c8ccc(*)cc8)cc7)cc6)cc5)cc4)(C(F)(F)F)C(F)(F)F)cc3)cc2)cc1 (repeat unit) ... 128.00
*CC(*)C(=O)OCCC#N (repeat unit) ... 4.00
*CCCCOCCCCOCCCCOC(=O)c1ccc(/N=C/c2cc(OCCCCCC)c(/C=C/c3cc(OCCCCCC)c(/C=C/c4cc(OCCCCCC)c(/C=N/c5ccc(C(=O)O*)cc5)cc4OCCCCCC)cc3OCCCCCC)cc2OCCCCCC)cc1 (repeat unit) ... 14.30
*CC(c1ccccc1)C1C(=O)OC(=O)C1* (repeat unit) ... 212.00

// glass transition temperature value for *c1ccc(Oc2ccc3c(c2)C(=O)N(*)C3=O)cc1 (repeat unit) : 266.00

Data point: *c1cc(Br)c(-c2c(Br)cc(N3C(=O)c4ccc(-c5ccc6c(c5)C(=O)N(*)C6=O)cc4C3=O)cc2C(=O)OCCCCCC)c(C(=O)OCCCCCC)c1 (repeat unit) ; glass transition temperature = 154.00

Lab book: glass transition temperature of *c1ccc(Oc2ccc(N3C(=O)c4c(c(-c5ccccc5)c(-c5ccc(Oc6ccc(-c7c(-c8ccccc8)c8c(c(-c9ccccc9)c7-c7ccccc7)C(=O)N(*)C8=O)cc6)cc5)c(-c5ccccc5)c4-c4ccccc4)C3=O)cc2)cc1 (repeat unit) noted as 360.00

Reported glass transition temperature for *CCCCCCCCCCCCCCCCCCCCOC(=O)CC(=O)O* (repeat unit) was -35.10

So for *c1ccc(Nc2ccc(C3(c4ccc(Nc5ccc(S(*)(=O)=O)cc5)c(F)c4)c4ccccc4-c4ccccc43)cc2F)cc1 (repeat unit) , the logged glass transition temperature turned out to be 145.00

response.value for *Oc1ccc(C(C)(C)c2cccc(C(C)(C)c3ccc(Oc4ccc(C(=O)Nc5ccc(NC(=O)c6ccc(*)cc6)cc5)cc4)cc3)c2)cc1 (repeat unit) (field: glass transition temperature) = 154.00

---

Entries and their measured glass transition temperature follow.
// return numeric value only (unit: °C, not printed)

Reference set, count: 3
*CC(C)(CCC)COC(=O)c1ccc(-c2ccc(C(=O)O*)cc2)cc1 (repeat unit) ... 95.00
*CCOCCOC(=O)c1ccc(C(=O)O*)cc1 (repeat unit) ... 21.90
*c1ccc(Oc2cccc(Oc3ccc(N4C(=O)c5ccc(Oc6ccc7c(c6)C(=O)N(*)C7=O)cc5C4=O)cc3)c2)cc1 (repeat unit) ... 208.2

Read the next record carefully.
Recorded result, *c1ccc(Oc2ccc(N3C(=O)c4ccc(Oc5cccc6c5C(=O)N(*)C6=O)cc4C3=O)cc2)cc1 (repeat unit) , glass transition temperature: 285.00

---

glass transition temperature: recorded values
Give your result in °C as a bare value.

Worked examples follow.
*c1cccc(P(=O)(c2ccc(Oc3ccc(C45CC6CC(CC(C6)C4)C5)cc3)cc2)c2cccc(N3C(=O)c4ccc(Oc5ccc6c(c5)C(=O)N(*)C6=O)cc4C3=O)c2)c1 (repeat unit) ... 290.00
*CC(CO*)(CSC(C)C)CSC(C)C (repeat unit) ... -9.00
*CCCCOC(=O)CCSCCCCCCSCCC(=O)O* (repeat unit) ... -73.00
*C1OC(C(F)(F)F)(C(F)(F)F)OC1(*)F (repeat unit) ... 256.00

Pending compound:
Measured glass transition temperature, *COc1ccc(C(C)(C)c2ccc(Oc3ccc(*)n3-c3ccc([N+](=O)[O-])cc3)cc2)cc1 (repeat unit) : 76.8

---

measured.quantity: glass transition temperature (°C)
The response must be a number in °C with no trailing unit.

Illustrative cases are given below, each with its answer.
*c1ccc(-c2nc3cc(-c4ccc5nc(*)c(-c6ccc7ccccc7c6)nc5c4)ccc3nc2-c2ccc3ccccc3c2)cc1 (repeat unit) ... 333.00
*Oc1ccc(C(=O)c2ccc(Oc3ccc4c(=O)n5c6cc(-c7ccc8c(c7)nc7c9ccc(*)c%10cccc(c(=O)n87)c%109)ccc6nc5c5cccc3c45)cc2)cc1 (repeat unit) ... 389.00
*c1c(C)cc(-c2cc(C)c(N3C(=O)c4cccc(Oc5ccc(C(C)(C)c6ccc(Oc7cccc8c7C(=O)N(*)C8=O)cc6)cc5)c4C3=O)c(C)c2)cc1C (repeat unit) ... 265.00

Note to self: glass transition temperature recorded for *CC(=O)NCCCCCCNC(=O)CS* (repeat unit) was -7.00

The measured glass transition temperature associated with *CC(*)(C)C(=O)OCC1COCCOCCOCCO1 (repeat unit) reads 35.00

Per the records, this compound ( *CC(*)(C)C#N (repeat unit) [Poly(methacrylonitrile)] ) has glass transition temperature equal to 101.67

Looking up *Oc1ccc(C(C)(C)c2ccc(Oc3ccc(C(=O)Nc4cccc(NC(=O)c5ccc(*)cc5)c4)cc3)cc2)cc1 (repeat unit) , I see its glass transition temperature listed as 214.00

Sure, the documented glass transition temperature for *Oc1ccc(OC(=O)c2ccc(OC(=O)c3ccc(C(=O)Oc4ccc(C(*)=O)cc4)cc3)cc2)cc1 (repeat unit) is 283.00

Value of measured glass transition temperature for the entry *c1ccc2c(c1)C(CCCCCCCC)(CCCCCCCC)c1cc(-c3cc(F)c(*)cc3F)ccc1-2 (repeat unit) : 34.00
